Would you mind telling me the reported Activity of each entry?
Tested on: Plasmodium berghei
Test: Antimalarial activity against Plasmodium berghei ANKA expressing GFP infected in Sprague-Dawley rat assessed as reduction in parasitemia at 3 mg/kg, po administered as single dose measured on day 3 post-infection by flow cytometry
Type: functional
Set-up: scale not given: the % may be the effect or the level left
Use % as the unit, but write only the number.

So the reported Activity for CCN(CC)CCCC(C)Nc1ccnc2cc(Cl)ccc12 (centres undefined) , on Plasmodium berghei, turned out to be 83

Field Activity (system: Plasmodium berghei) for entry `CS(=O)(=O)c1ccc(-c2cnc(N)c(-c3ccc(C(F)(F)F)nc3)c2)cc1` = 98

====

Assay: Half life in human liver microsomes at 1 uM
Type: ADME, Microsome
Would you kindly list half-life at 1 µM for each of these molecules?
Report the figure in h without appending any unit label.

# half-life at 1 µM of `Cc1ccc(-c2cc(-c3ccc(S(C)(=O)=O)cc3)cnc2N)c2cccnc12` = 1.77

For this molecule ( `Cc1ccc(-c2cc(-c3ccc(S(C)(=O)=O)cc3)cnc2N)cc1C(F)(F)F` ), measured half-life at 1 µM is 1.25

Kindly note the recorded half-life at 1 µM for `CS(=O)(=O)c1ccc(-c2cnc(N)c(-c3ccc(C(F)(F)F)c(F)c3)c2)cc1` , which is 2.05

====

Test: Apparent terminal half life in Sprague-Dawley rat at […], iv
Assay type: ADME, organism-based
Design: dose 4.7 mg/kg, route intravenous
Conditions: in vivo, read-out: betat1/2(app) (converted)
Give measured half-life for each item. Keep answers brief.
Write the value in h as a bare number.

Quick note, half-life for `COc1ccc(-c2cc(-c3ccc(S(C)(=O)=O)cc3)cnc2N)cn1` landed at 8

// half-life value for `CS(=O)(=O)c1ccc(-c2cnc(N)c(-c3ccc(C(F)(F)F)cc3)c2)cc1` : 11.3

====

Experiment: Cmax in Sprague-Dawley rat at 21.7 mg/kg, po
Assay type: ADME, organism-based
Design: dose 21.7 mg/kg, route oral
Conditions: in vivo
MEASURED PROPERTY: Cmax (nM)
State just the number; it will be interpreted in nM.

Notebook: `CS(=O)(=O)c1ccc(-c2cnc(N)c(-c3ccc(C(F)(F)F)cc3)c2)cc1` , Cmax read as 1000

====

Experiment: AUC (0 to infinity) in Sprague-Dawley rat at 3.2 mg/kg, iv
Type: ADME, organism-based
Design: time infinity, dose 3.2 mg/kg, route intravenous
Details: plasma
MEASURED PROPERTY: AUC(0-inf) (µM·h)
Write down the numeric answer in µM·h and omit the unit.

`CS(=O)(=O)c1ccc(-c2cnc(N)c(-c3ccc(C(F)(F)F)nc3)c2)cc1` has a reported AUC(0-inf) of 23.4

====

Test: Apparent terminal half life in Sprague-Dawley rat at 21.7 mg/kg, po
Type: ADME, organism-based
Parameters: dose 21.7 mg/kg, route oral
Conditions: in vivo, read-out: betat1/2(app) (converted)
MEASURED PROPERTY: half-life (h)
The reply should contain only the number, in h.

The recorded half-life for entry `CS(=O)(=O)c1ccc(-c2cnc(N)c(-c3ccc(C(F)(F)F)cc3)c2)cc1` equals 6

====

Please provide measured Activity for the entries that follow.
Tested on: Plasmodium falciparum
Assay: Antimalarial activity against ring stage Plasmodium falciparum Dd2 at 1.82 uM after 72 hrs by DAPI-staining based confocal microscopy
Type: functional
Give just the numeric value; % need not be written.

Lab book: Activity of `CN(C)CCNC(=O)c1ccc(-c2cc(-c3cc(F)c(F)c(F)c3)cnc2N)cc1` noted as 50

For reference, reported Activity for `Nc1ncc(-c2ccc(Cl)cc2)cc1-c1cccc(CO)c1` stands at 50

GET /value?item= `COc1ccc(-c2cnc(N)c(-c3ccc(O)c(OC)c3)c2)cc1` &field=Activity returns 50
